Each entry below lists one item and its recorded remaining at 0.5 h value.
experiment: Metabolic stability in porcine blood plasma assessed as parent compound remaining incubated fro 30 mins by HPLC and MS-detection based method; format: ADME, cell-free, Sus scrofa; conditions: pig, read-out: Stability

CHEMICAL STRING	RESULT UNIT	remaining at 0.5 h
O=C(Oc1ccccc1)N1CCC(CCCn2ccc3ccccc32)CC1	%	93
O=C(Oc1ccccc1)N1CCC(Cn2ccc3ccccc32)CC1	%	93
O=C(Oc1ccccc1)N1CCC(CCn2ccc3ccc(F)cc32)CC1	%	93
O=C(Oc1ccccc1)N1CCC(CCCCn2ccc3ccccc32)CC1	%	87
O=C(Oc1ccccc1)N1CCC(CCn2ccc3ccccc32)CC1	%	94
CN(CCCCCn1ccc2ccc(F)cc21)C(=O)Oc1ccccc1	%	93

Reference for the values: ChEMBL document CHEMBL4138074
